Hey, just so you know, these numbers are from patent EP4703388A1.

Collected kon values appear next to each entry.
target: T1, human TF ECD-His (hTF-his) (human, UniProt P13726 33-251); assay: SPR Biacore T200, antibody on Protein A chip, TF-His as analyte, 1:1 model
T1 construct: also called bio-hTF-his; human TF-His protein
Give the value in M⁻¹ s⁻¹ but do not write M⁻¹ s⁻¹ after it.

[
  {
    "BINDER": "hu310-2 (antibody, human IgG1, kappa, V domains shown) VH: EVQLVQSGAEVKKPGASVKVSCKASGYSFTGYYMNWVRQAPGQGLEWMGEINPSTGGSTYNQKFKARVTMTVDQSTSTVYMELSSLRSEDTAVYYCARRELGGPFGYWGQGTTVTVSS VL: SIVMTQSPDSLAVSLGERATINCKASQSVSNGIAWYQQKPGQSPKLLIYFASNRYTGVPDRFSGSGYGTDFTLTISSLQAEDVAVYYCQQDYSSPWTFGGGTKVEIKR",
    "VALUE_UNITS": "M⁻¹ s⁻¹",
    "RECORDED_VALUE": 378000
  }
]

query: Entry hu10H10-53 (antibody, V domains shown, H11+L6; Full-length IgG) VH: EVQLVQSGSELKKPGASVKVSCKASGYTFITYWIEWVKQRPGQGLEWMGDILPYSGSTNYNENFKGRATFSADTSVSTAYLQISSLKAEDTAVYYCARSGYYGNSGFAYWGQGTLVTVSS VL: DIQMTQSPSSLSASVGDRVTITCKSSQSLLSSSNQKNYLTWYQQKPGKAPKLLIYWASTREEGVPSRFSGSGSGTDFTLTISSLQPEDFATYYCQNDYTYPLTFGQGTKLEIK : reported kon = ?
result: 156000
